# System: biotinyl-Phe-oxazolone
# EXPERIMENTAL PROTOCOL: self-aminoacylation, catalytic enhancement (BFO) (fold over background); higher = more active; k-Seq, kA / k0A0; sequences stand for … in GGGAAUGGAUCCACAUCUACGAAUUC…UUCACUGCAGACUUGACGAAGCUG
Fewer inactive variants are shown than the library holds.
Recorded self-aminoacylation values for a group of sequences are listed next.
Format: numeric value only, no unit, no commentary.

CCCCUUCAAACAAUCGGUCUG [Fam1A.1 aminoacylation ribozyme variant]
185

Look up self-aminoacylation: AUUCACGUACGUCAUCGGGUG [Fam2.2 aminoacylation ribozyme variant]
79.8

And the next one, CCACAUUUCAAGAAAUCGGUC [Fam1B.1 aminoacylation ribozyme variant] ?
2.09

And the next one, AAGUUUGCUAAUAGUCACAAA [Fam3.1 aminoacylation ribozyme variant] ?
1.34

---

# Test system: biotinyl-Met-oxazolone
# EXPERIMENTAL PROTOCOL: self-aminoacylation, catalytic enhancement (BMO) (fold over background); higher = more active; k-Seq, kA / k0A0; sequences stand for … in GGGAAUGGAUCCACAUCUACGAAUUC…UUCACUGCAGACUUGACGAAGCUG
Variants at the floor of the assay were thinned out.
READOUT LABEL: self-aminoacylation
Format: numeric value only, no unit, no commentary.

Below: 8 sequences and their reported self-aminoacylation.
UAGUUUGCUGAUAGUCGCAAG [Fam3.1 aminoacylation ribozyme variant]
0.993
CCUCACAUCAAGCAAUCGGUC [Fam1B.1 aminoacylation ribozyme variant]
0.749
AUUCACCUAGGUCAUACGGUG [Fam2.2 aminoacylation ribozyme variant]
7.59
AAGUUCGCUCAUAGUCGCAAG [Fam3.1 aminoacylation ribozyme variant]
2.01
AUUACCUUGGUCAUCGAGUCA [Fam2.1 aminoacylation ribozyme variant]
0.691
CCACCCUUCAAACAAUCGGUC [Fam1B.1 aminoacylation ribozyme variant]
1.43
AAGUUUGCUAAGAGUCGUAAG [Fam3.1 aminoacylation ribozyme variant]
0.708
AUUACCCUGGUCAUCGAGUGA [Fam2.1 aminoacylation ribozyme variant]
91.3

Look up self-aminoacylation: CUACUUGAAACAAUCGGUCUG [Fam1A.1 aminoacylation ribozyme variant]
0.788

And the next one, AUUACGGUGGUCAUCGAGUGA [Fam2.1 aminoacylation ribozyme variant] ?
2.68

And the next one, UUACUUCAAACAAUCGGACUG [Fam1A.1 aminoacylation ribozyme variant] ?
1.26

And the next one, CCACGUCAAACAAUCGGUCUG [Fam1A.1 aminoacylation ribozyme variant] ?
1.75

And the next one, CCACACUUCAUGCAAUCGGUA [Fam1B.1 aminoacylation ribozyme variant] ?
0.769

And the next one, AAGUUCGCUAAUAGUGGCAAG [Fam3.1 aminoacylation ribozyme variant] ?
0.601

And the next one, CUACACUUCAAGCAAUGGGUC [Fam1B.1 aminoacylation ribozyme variant] ?
0.494

And the next one, AUGUUCGCUAAUAGUCGCAAG [Fam3.1 aminoacylation ribozyme variant] ?
1.65

And the next one, AGUUACCUAGGUCAUCGGGUG [Fam2.2 aminoacylation ribozyme variant] ?
5.38

And the next one, AUUCACUUAGGUCAUCGGGUC [Fam2.2 aminoacylation ribozyme variant] ?
1.22

And the next one, CCACUUCAAACUAUCGGUCUG [Fam1A.1 aminoacylation ribozyme variant] ?
1.39

And the next one, AUUACGCUGGUCAUCGAGAGA [Fam2.1 aminoacylation ribozyme variant] ?
1.44

And the next one, CUUCACCAAGGUCAUCGGGUG [Fam2.2 aminoacylation ribozyme variant] ?
8.17

And the next one, AAGUUAGCUAAUAGUCGCAAG [Fam3.1 aminoacylation ribozyme variant] ?
1.6

And the next one, AAGUUUCCUAACAGUCGCAAG [Fam3.1 aminoacylation ribozyme variant] ?
0.884

And the next one, CUUACCCUGGUCAUCGAGUGA [Fam2.1 aminoacylation ribozyme variant] ?
25.3

And the next one, CUACUUCCAACAAUCGGUGUG [Fam1A.1 aminoacylation ribozyme variant] ?
1.06

And the next one, AUUACACUGGUAAUCGAGUGA [Fam2.1 aminoacylation ribozyme variant] ?
7.53

And the next one, CCACACAUCUAGCAAUCGGUC [Fam1B.1 aminoacylation ribozyme variant] ?
0.797

---

# Test system: biotinyl-Leu-oxazolone
# EXPERIMENTAL PROTOCOL: self-aminoacylation, catalytic enhancement (BLO) (fold over background); higher = more active; k-Seq, kA / k0A0; sequences stand for … in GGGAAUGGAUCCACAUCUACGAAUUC…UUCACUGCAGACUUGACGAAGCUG
Fewer inactive variants are shown than the library holds.
Threshold rule: self-aminoacylation greater than or equal to 2 is True; below that, False.

Here are 2 sequences together with their reported answers.
AUGCACCUAGGUCAUCGAGUG [Fam2.2 aminoacylation ribozyme variant]
True
ACUACCCGGGUCAUCGAGUGA [Fam2.1 aminoacylation ribozyme variant]
True

Hi team, for AUUCAUCUAGGUCAUGGGGUG [Fam2.2 aminoacylation ribozyme variant] , is the recorded self-aminoacylation at or above 2?
True

And the next one, AUUACCAUGGUCAUUGAGUGA [Fam2.1 aminoacylation ribozyme variant] ?
True

And the next one, CCAGACUUCAACCAAUCGGUC [Fam1B.1 aminoacylation ribozyme variant] ?
True

And the next one, CCACACUUUAAGCAAUCGGUA [Fam1B.1 aminoacylation ribozyme variant] ?
False

And the next one, GCACACUUCACGCAAUCGGUC [Fam1B.1 aminoacylation ribozyme variant] ?
False

---

# Test system: biotinyl-Trp-oxazolone
# EXPERIMENTAL PROTOCOL: self-aminoacylation, catalytic enhancement (BWO) (fold over background); higher = more active; k-Seq, kA / k0A0; sequences stand for … in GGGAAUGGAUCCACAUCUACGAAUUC…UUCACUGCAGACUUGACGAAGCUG
Fewer inactive variants are shown than the library holds.
Threshold rule: self-aminoacylation greater than or equal to 1 is label 1; below that, label 0.

Here are 2 sequences together with their reported answers.
AAUACCGUGGUCAUCGAGUGA [Fam2.1 aminoacylation ribozyme variant]
label 1
AUUACCCUGGUCAUAGAGUGG [Fam2.1 aminoacylation ribozyme variant]
label 1

Hi team, for AGUACCCUGGUCAUCGAGGGA [Fam2.1 aminoacylation ribozyme variant] , is the recorded self-aminoacylation at or above 1?
label 1

And the next one, AAGUUUGCUAAUAUUCGCAAU [Fam3.1 aminoacylation ribozyme variant] ?
label 1

And the next one, CUUACCCUGGUCAUAGAGUGA [Fam2.1 aminoacylation ribozyme variant] ?
label 1

---

# Test system: biotinyl-Phe-oxazolone
# EXPERIMENTAL PROTOCOL: self-aminoacylation, catalytic enhancement (BFO) (fold over background); higher = more active; k-Seq, kA / k0A0; sequences stand for … in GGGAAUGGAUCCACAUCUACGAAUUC…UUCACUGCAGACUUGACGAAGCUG
Variants at the floor of the assay were thinned out.
Recorded self-aminoacylation values for a group of sequences are listed next.
Format: numeric value only, no unit, no commentary.

Below: 8 sequences and their reported self-aminoacylation.
CCACACUUCAAGCCCUCGGUC [Fam1B.1 aminoacylation ribozyme variant]
5.16
AGUCACCUAGUUCAUCGGGUG [Fam2.2 aminoacylation ribozyme variant]
24
AAGUUUCCUAAUCGUCGCAAG [Fam3.1 aminoacylation ribozyme variant]
1
CUACUCCAAACAAUCCGUCUG [Fam1A.1 aminoacylation ribozyme variant]
0.642
AAGUUUGCUAAGAGUCGCAAA [Fam3.1 aminoacylation ribozyme variant]
2.02
CGACACUUCAAGCAAUCGGUC [Fam1B.1 aminoacylation ribozyme variant]
13.4
AUUACCCUGAUCAUCGAGUAA [Fam2.1 aminoacylation ribozyme variant]
1.09
AUUUCCCUGGUCAUCGAGUGC [Fam2.1 aminoacylation ribozyme variant]
2.11

Look up self-aminoacylation: AAGUUUGCUAACAGUCGCGAG [Fam3.1 aminoacylation ribozyme variant]
1.64

And the next one, CUACUUCAGCCAAUCGGUCUG [Fam1A.1 aminoacylation ribozyme variant] ?
0.64

---

# Tested on: biotinyl-Met-oxazolone
# EXPERIMENTAL PROTOCOL: self-aminoacylation, catalytic enhancement (BMO) (fold over background); higher = more active; k-Seq, kA / k0A0; sequences stand for … in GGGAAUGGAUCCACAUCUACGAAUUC…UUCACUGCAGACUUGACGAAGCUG
Fewer inactive variants are shown than the library holds.
Threshold rule: self-aminoacylation greater than or equal to 2 is yes; below that, no.

CCACAGUACAAGCAAUCGGUC [Fam1B.1 aminoacylation ribozyme variant]
no
AAGUUUGCUAAAAGUCGCAAA [Fam3.1 aminoacylation ribozyme variant]
no
AUUCACAUAGGUCAUCGGGGG [Fam2.2 aminoacylation ribozyme variant]
yes
CCACACUUCUAGCAAUAGGUC [Fam1B.1 aminoacylation ribozyme variant]
no

Hi team, for CCAAACUUCAAACAAUCGGUC [Fam1B.1 aminoacylation ribozyme variant] , is the recorded self-aminoacylation at or above 2?
no

From: the supplement of paper PMC9233669
